assay: In vivo pharmacokinetics after intragastric administration in rats; set-up: species or system SD rats; conditions: male, SD, rat, po, single intragastric administration, 40 mg/kg, plasma
Readout type: Cmax (ng/mL)
Provide the reading as a plain figure in ng/mL.

Cc1nc(NC2CCN(C(=O)O[C@H]3CCN(C(=O)/C=C/CN(C)C)C3)CC2)c2ncc(C(C)C)n2n1 | 543

Next compound, Cmax to be filled in.
I'd like to know its Cmax. The compound in question is Cc1nc(NC2CCN(C(=O)O[C@H]3CCN(C(=O)/C=C/CN(C)C)C3)CC2)n2ncc(C(C)C)c2n1
783

---

Entries and their AUC(0-inf)
assay: In vivo pharmacokinetics after intragastric administration in rats; design: species or system SD rats; conditions: male, SD, rat, po, single intragastric administration, 40 mg/kg, plasma
Provide the reading as a plain figure in ng·h/mL.

Cc1nc(NC2CCN(C(=O)O[C@H]3CCN(C(=O)/C=C/CN(C)C)C3)CC2)n2ncc(C(C)C)c2n1 | 7880

Next molecule, AUC(0-inf) to be filled in.
I'd like to know its AUC(0-inf). The molecule in question is Cc1nc(NC2CCN(C(=O)O[C@H]3CCN(C(=O)/C=C/CN(C)C)C3)CC2)c2ncc(C(C)C)n2n1
4510
